Hey, just so you know, these numbers are from ChEMBL document CHEMBL3585342.

Target: Phosphatidylinositol 4,5-bisphosphate 3-kinase catalytic subunit delta isoform (Homo sapiens, UniProt O00329)
Sequence (O00329 whole entry, canonical isoform): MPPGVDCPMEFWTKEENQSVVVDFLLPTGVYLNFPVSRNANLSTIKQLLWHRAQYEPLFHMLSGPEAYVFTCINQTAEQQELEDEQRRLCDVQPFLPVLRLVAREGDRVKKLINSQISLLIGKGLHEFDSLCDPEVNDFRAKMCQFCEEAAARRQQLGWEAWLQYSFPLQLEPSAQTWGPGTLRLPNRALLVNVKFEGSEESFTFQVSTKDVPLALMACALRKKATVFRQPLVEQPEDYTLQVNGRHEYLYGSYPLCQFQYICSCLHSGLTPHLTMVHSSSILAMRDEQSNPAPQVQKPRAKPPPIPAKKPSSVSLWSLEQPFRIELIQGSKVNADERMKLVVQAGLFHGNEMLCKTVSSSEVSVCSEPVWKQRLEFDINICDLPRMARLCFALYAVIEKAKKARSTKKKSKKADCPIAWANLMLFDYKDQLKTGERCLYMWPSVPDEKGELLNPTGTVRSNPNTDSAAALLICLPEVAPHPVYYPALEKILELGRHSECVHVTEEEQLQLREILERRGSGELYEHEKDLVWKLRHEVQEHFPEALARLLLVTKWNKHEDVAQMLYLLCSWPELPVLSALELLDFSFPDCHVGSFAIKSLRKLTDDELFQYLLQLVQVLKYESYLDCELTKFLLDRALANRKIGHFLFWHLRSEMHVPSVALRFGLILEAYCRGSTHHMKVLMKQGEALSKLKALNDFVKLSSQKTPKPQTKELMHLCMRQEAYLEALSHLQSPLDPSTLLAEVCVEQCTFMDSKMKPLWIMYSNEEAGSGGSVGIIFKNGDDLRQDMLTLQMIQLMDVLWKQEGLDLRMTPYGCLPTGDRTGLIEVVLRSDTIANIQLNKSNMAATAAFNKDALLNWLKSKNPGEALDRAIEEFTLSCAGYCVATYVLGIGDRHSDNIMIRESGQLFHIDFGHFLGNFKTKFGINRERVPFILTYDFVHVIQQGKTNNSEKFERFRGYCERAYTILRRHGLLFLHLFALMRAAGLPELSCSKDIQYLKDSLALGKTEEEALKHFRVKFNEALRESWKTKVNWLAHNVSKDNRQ
reported-property: IC50 (nM)
Give bare numbers, in nM.

Observe how each entry below is paired with its result.
COc1ccc(NCc2cccn3c(=O)cc(N4CCOCC4)nc23)cc1
240
O=C(Nc1cccn2c(=O)cc(N3CCOCC3)nc12)Oc1ccccc1
1800
Cc1cc(Nc2ccccc2C)c2nc(N3CCOCC3)cc(=O)n2c1
310
O=C(Nc1cccn2c(=O)cc(N3CCOCC3)nc12)c1ccccc1
220
Cc1cccc(CNc2cc(C)cn3c(=O)cc(N4CCOCC4)nc23)c1
200

The record that follows has no IC50 shown yet.
Prompt line: Given the entry "Cc1cccc(C(=O)Nc2cccn3c(=O)cc(N4CCOCC4)nc23)c1" , report its measured IC50.
Response line: 470

====

Molecular target: Phosphatidylinositol 4,5-bisphosphate 3-kinase catalytic subunit alpha isoform (Homo sapiens, UniProt P42336)
Sequence (P42336 whole entry, canonical isoform): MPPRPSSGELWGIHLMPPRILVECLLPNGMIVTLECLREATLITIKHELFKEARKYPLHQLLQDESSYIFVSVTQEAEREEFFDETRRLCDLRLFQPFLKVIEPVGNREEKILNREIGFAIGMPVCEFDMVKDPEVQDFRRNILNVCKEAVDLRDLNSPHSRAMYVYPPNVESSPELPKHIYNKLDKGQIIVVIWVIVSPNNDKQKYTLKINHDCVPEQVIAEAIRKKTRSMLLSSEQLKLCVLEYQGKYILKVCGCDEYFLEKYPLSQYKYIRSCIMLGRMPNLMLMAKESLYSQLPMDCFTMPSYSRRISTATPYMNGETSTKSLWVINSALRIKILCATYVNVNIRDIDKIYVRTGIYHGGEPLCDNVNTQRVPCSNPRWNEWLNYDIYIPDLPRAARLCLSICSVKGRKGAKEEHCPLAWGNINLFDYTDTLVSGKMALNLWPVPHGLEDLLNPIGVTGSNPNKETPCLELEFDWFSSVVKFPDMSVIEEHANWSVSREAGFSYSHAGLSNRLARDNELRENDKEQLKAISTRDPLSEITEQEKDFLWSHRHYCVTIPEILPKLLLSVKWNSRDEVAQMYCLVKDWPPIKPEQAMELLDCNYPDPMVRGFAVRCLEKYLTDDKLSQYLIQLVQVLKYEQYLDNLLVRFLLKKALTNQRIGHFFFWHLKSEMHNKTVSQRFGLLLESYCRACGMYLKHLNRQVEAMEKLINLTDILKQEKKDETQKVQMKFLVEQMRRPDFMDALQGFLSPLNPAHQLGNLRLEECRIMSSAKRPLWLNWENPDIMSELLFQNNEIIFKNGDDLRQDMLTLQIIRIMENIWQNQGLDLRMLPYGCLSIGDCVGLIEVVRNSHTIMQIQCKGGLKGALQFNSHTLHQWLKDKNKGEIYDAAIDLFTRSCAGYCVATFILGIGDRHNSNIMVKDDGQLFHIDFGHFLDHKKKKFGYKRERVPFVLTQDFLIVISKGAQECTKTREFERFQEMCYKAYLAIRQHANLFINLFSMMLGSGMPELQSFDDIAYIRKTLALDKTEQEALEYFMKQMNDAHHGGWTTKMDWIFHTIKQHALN
Can you tell me IC50 for the items I'm about to list?
One number for each entry, in µM.

Reference set (3 entries):
Cc1ccc(S(=O)(=O)NCc2cccn3c(=O)cc(N4CCOCC4)nc23)cc1
6.5
Cc1ccc(CNc2cc(C)cn3c(=O)cc(N4CCOCC4)nc23)cc1
0.9
Cc1cccc(NC(=O)c2cccn3c(=O)cc(N4CCOCC4)nc23)c1
0.85

Now consider the entry below.
Prompt line: Find the recorded IC50 belonging to "O=c1cc(N2CCOCC2)nc2c(CNc3ccc(Cl)cc3)cccn12" and report it.
Response line: 3.1

====

Molecular target: Phosphatidylinositol 4,5-bisphosphate 3-kinase catalytic subunit beta isoform (Homo sapiens, UniProt P42338)
Sequence (P42338 whole entry, canonical isoform): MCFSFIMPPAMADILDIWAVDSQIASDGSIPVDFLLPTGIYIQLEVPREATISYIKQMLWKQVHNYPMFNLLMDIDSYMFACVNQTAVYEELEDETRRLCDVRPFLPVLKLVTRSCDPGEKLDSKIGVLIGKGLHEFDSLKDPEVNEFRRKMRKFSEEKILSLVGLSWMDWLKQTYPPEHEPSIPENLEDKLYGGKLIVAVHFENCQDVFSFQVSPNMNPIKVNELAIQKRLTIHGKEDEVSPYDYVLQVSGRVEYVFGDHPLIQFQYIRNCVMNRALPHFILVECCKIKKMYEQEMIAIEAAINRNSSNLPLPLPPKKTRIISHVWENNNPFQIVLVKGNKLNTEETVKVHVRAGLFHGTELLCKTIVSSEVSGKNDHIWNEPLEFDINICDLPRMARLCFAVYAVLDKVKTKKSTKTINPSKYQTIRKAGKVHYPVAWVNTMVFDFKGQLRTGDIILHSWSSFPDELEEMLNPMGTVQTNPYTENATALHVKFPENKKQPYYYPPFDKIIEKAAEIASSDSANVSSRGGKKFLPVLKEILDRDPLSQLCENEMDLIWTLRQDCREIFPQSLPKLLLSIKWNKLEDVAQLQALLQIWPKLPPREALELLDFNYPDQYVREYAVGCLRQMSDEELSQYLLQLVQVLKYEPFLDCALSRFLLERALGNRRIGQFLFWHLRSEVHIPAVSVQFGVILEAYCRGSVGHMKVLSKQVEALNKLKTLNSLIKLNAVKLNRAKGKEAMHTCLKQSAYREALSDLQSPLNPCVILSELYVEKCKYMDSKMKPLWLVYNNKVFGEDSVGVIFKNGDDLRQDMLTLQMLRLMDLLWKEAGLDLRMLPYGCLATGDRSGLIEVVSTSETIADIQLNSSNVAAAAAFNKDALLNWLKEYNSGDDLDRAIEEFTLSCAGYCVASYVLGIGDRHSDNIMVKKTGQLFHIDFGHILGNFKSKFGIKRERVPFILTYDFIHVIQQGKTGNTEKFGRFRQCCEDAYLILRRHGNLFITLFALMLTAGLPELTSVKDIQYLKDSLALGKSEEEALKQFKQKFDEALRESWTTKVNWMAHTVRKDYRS
For each record, write down the corresponding IC50.

Some entries whose results are on file:
Cc1cc(Nc2c(C)cccc2C)c2nc(N3CCOCC3)cc(=O)n2c1
2.1 µM
O=c1cc(N2CCOCC2)nc2c(COc3ccccc3)cccn12
0.23 µM

// for each compound below, give its IC50
1. O=C(Nc1cccn2c(=O)cc(N3CCOCC3)nc12)Oc1ccccc1
2. Cc1ccc(Nc2cc(C)cn3c(=O)cc(N4CCOCC4)nc23)cc1

Response line:
9.1 µM
3.2 µM

====

Molecular target: Phosphatidylinositol 4,5-bisphosphate 3-kinase catalytic subunit delta isoform (Homo sapiens, UniProt O00329)
reported-property: IC50 (nM)
One number for each entry, in nM.

Some solved cases for reference:
O=c1cc(N2CCOCC2)nc2c(CNc3ccc(Cl)cc3)cccn12
1100
O=C(Nc1ccccc1)c1cccn2c(=O)cc(N3CCOCC3)nc12
150
Cc1ccc(S(=O)(=O)NCc2cccn3c(=O)cc(N4CCOCC4)nc23)cc1
600
Cc1cc(NCc2ccccc2)c2nc(N3CCOCC3)cc(=O)n2c1
230
Cc1cc(NCc2cccnc2)c2nc(N3CCOCC3)cc(=O)n2c1
450

// for each molecule below, give its IC50
1. O=C(Nc1ccccc1)Nc1cccn2c(=O)cc(N3CCOCC3)nc12
2. COc1ccc(OCc2cccn3c(=O)cc(N4CCOCC4)nc23)cc1
3. Cc1ccccc1NCc1cccn2c(=O)cc(N3CCOCC3)nc12
4. Cc1ccc(Nc2cc(C)cn3c(=O)cc(N4CCOCC4)nc23)cc1

Response line:
1. 480
2. 460
3. 470
4. 1000

# per-item lookup of IC50; items listed below
1. N#Cc1ccc(OCc2cccn3c(=O)cc(N4CCOCC4)nc23)cc1
2. O=c1cc(N2CCOCC2)nc2c(CSc3ccccc3)cccn12
3. Cc1ccc(NCc2cccn3c(=O)cc(N4CCOCC4)nc23)cc1
4. Cc1ccccc1NC(=O)c1cccn2c(=O)cc(N3CCOCC3)nc12

Response line:
1500
570
710
530
